From: patent US9669031B2

assay: in vivo; conditions: male, Balb/c, mouse, po, 10 mg/kg, Cmax
endpoint label: Cmax (ng/mL)

1) CC1(C(F)(F)F)NC(=O)c2ccc(Nc3ccncn3)c(=O)n21 (stereo not drawn) | 405
2) CC1(C2CCCC2)NC(=O)c2ccc(Nc3ccncn3)c(=O)n21 (stereo not drawn) | 5050
3) CC1(C)NC(=O)c2ccc(Nc3cc(NC(=O)C4CC4)ncn3)c(=O)n21 | 2160

* * *

Consider the following compounds and their measured half-life readings.
test: in vivo; conditions: female, Balb/c, mouse, po, 10 mg/kg, T½
endpoint label: half-life (h)

1) Cl.O=C1NC2(CCCNC2)n2c1c(Cl)cc(Nc1cc(NC(=O)C3CC3)ncn1)c2=O (stereo not shown) [Cpd. No. 60] | 2.21
2) CC1(c2cccc(Cl)c2)NC(=O)c2c(Cl)cc(Nc3cc(NC(=O)C4CC4)ncn3)c(=O)n21 (stereo not shown) [Cpd. No. 51] | 7.38
3) CC1(c2cccc(F)c2)NC(=O)c2c(Cl)cc(Nc3cc(NC(=O)C4CC4)ncn3)c(=O)n21 (stereo not shown) [Cpd. No. 52] | 5.41
4) CC1(c2cccc(Cl)c2)NC(=O)c2c(Cl)cc(Nc3ccncn3)c(=O)n21 (stereo not shown) [Cpd. No. 58] | 5.32

* * *

Consider the following molecules and their measured Vd readings.
test: Pharmacokinetics in Balb/c mice, single intravenous bolus administration; type: in vivo; conditions: female, mouse, plasma, intravenous bolus 1 mg/kg, formulation 10DMA/15EtOH/35PEG300/40D5W, gender F, read-out: Vss
endpoint label: Vd (L/kg)

1) Cc1cc(Nc2cc(N)ncn2)c(=O)n2c1C(=O)NC21CCCC1.Cl [Cpd. No. 98] | 3.56
2) Nc1cc(Nc2cc(Cl)c3n(c2=O)C2(CCCC2)NC3=O)ncn1 [Cpd. No. 94] | 12.2
3) CC1(C)NC(=O)c2c(Cl)cc(Nc3cc(N)ncn3)c(=O)n21 [Cpd. No. 88] | 3.03
4) Cc1cc(Nc2cc(N)ncn2)c(=O)n2c1C(=O)NC21CCCCC1 [Cpd. No. 107] | 3.21

* * *

assay: Pharmacokinetics in Balb/c mice, single intravenous bolus administration; type: in vivo; settings: female, mouse, plasma, intravenous bolus 1 mg/kg, formulation 10DMI/15EtOH/35PG/40Saline, gender F, read-out: Vss
endpoint label: Vd (L/kg)

1) CC1(c2cccc(Cl)c2)NC(=O)c2c(Cl)cc(Nc3cc(NC(=O)C4CC4)ncn3)c(=O)n21 (stereo not drawn) | 2.79
2) O=C1NC2(CCC(F)(F)CC2)n2c1c(Cl)cc(Nc1cc(NC(=O)C3CC3)ncn1)c2=O | 3.18
3) CC1(C)NC(=O)c2ccc(Nc3cc(NC(=O)C4CC4)ncn3)c(=O)n21 | 5.45

* * *

assay: Pharmacokinetics in Balb/c mice, single intravenous bolus administration; format: in vivo; conditions: female, mouse, plasma, intravenous bolus 1 mg/kg, formulation 10DMI/15EtOH/35PG/40Saline, gender F, read-out: AUCINF_obs
Consider the following compounds and their measured AUC(0-inf) readings.
endpoint label: AUC(0-inf) (ng·h/mL)

1. CC1(c2cccc(Cl)c2)NC(=O)c2c(Cl)cc(Nc3cc(NC(=O)C4CC4)ncn3)c(=O)n21 (stereo not drawn) | 2500
2. CC1(C)NC(=O)c2ccc(Nc3cc(NC(=O)C4CC4)ncn3)c(=O)n21 | 396
3. O=C1NC2(CCC(F)(F)CC2)n2c1c(Cl)cc(Nc1cc(NC(=O)C3CC3)ncn1)c2=O | 887

* * *

assay: in vivo; settings: female, Balb/c, mouse, po, 10 mg/kg, T½
Lab note - cut at 200 min for half-life: Met if strictly below, Not met if not.

1. O=C1NC2(CCCCC2)n2c1c(Cl)cc(Nc1cc(NC(=O)C3CC3)ncn1)c2=O | Not met
2. O=C1NC2(CCCNC2)n2c1ccc(Nc1ccncn1)c2=O (centres unmarked) | Met
3. Cl.O=C1NC2(CCC(F)(F)CC2)n2c1c(Cl)cc(Nc1ccncn1)c2=O | Met
4. Cl.Nc1cc(Nc2cc(Cl)c3n(c2=O)C2(CCC(F)(F)CC2)NC3=O)ncn1 | Met
5. CC1(C(F)(F)F)NC(=O)c2c(Cl)cc(Nc3ccncn3)c(=O)n21 (centres unmarked) | Not met
6. Cc1cc(Nc2cc(N)ncn2)c(=O)n2c1C(=O)NC2(C)C.Cl | Met
7. CC1(C)NC(=O)c2c(Cl)cc(Nc3cc(N)ncn3)c(=O)n21 | Met
8. CC1(C2CCCC2)NC(=O)c2ccc(Nc3cc(NC(=O)C4CC4)ncn3)c(=O)n21 (centres unmarked) | Not met
9. Nc1cc(Nc2cc(Cl)c3n(c2=O)C2(CCCCC2)NC3=O)ncn1 | Met
10. CC1(C)NC(=O)c2ccc(Nc3cc(NC(=O)C4CC4)ncn3)c(=O)n21 | Met
11. Cc1cc(Nc2cc(N)ncn2)c(=O)n2c1C(=O)NC21CCCC1.Cl | Met
12. CC1(C)NC(=O)c2c(Cl)cc(Nc3cc(NC(=O)C4CC4)ncn3)c(=O)n21 | Not met
13. O=C1NC2(CCCC2)n2c1ccc(Nc1cc(NC(=O)C3CC3)ncn1)c2=O | Met
14. CC1(C(F)(F)F)NC(=O)c2ccc(Nc3cc(NC(=O)C4CC4)ncn3)c(=O)n21 (centres unmarked) | Met
15. Cc1cc(Nc2cc(N)ncn2)c(=O)n2c1C(=O)NC21CCCCC1 | Not met
16. CC1(CC(F)(F)F)NC(=O)c2c(Cl)cc(Nc3ccncn3)c(=O)n21 (centres unmarked) | Met
17. CC1(CC(F)(F)F)NC(=O)c2ccc(Nc3cc(NC(=O)C4CC4)ncn3)c(=O)n21 (centres unmarked) | Met
18. Cl.Cl.Nc1cc(Nc2cc(Cl)c3n(c2=O)C2(CCNCC2)NC3=O)ncn1 | Met
19. Cl.O=C1NC2(CCCCC2)n2c1c(Cl)cc(Nc1ccncn1)c2=O | Met
20. Nc1cc(Nc2cc(Cl)c3n(c2=O)C2(CCCC2)NC3=O)ncn1 | Met

* * *

assay: in vivo; conditions: female, Balb/c, mouse, po, 10 mg/kg, Tmax
endpoint label: Tmax

1) CC1(C)NC(=O)c2c(Cl)cc(Nc3cc(N)ncn3)c(=O)n21 [Cpd. No. 88] | 0.5 h
2) O=C1NC2(CCC(F)(F)CC2)n2c1c(Cl)cc(Nc1cc(NC(=O)C3CC3)ncn1)c2=O [Cpd. No. 50] | 4 h
3) Cl.Cl.Nc1cc(Nc2cc(Cl)c3n(c2=O)C2(CCNCC2)NC3=O)ncn1 [Cpd. No. 108] | 0.3 h
4) CC1(CC(F)(F)F)NC(=O)c2ccc(Nc3cc(NC(=O)C4CC4)ncn3)c(=O)n21 (stereo not shown) [Cpd. No. 22] | 2 h

* * *

assay: in vivo; details: female, Balb/c, mouse, po, 10 mg/kg, Tmax
Consider the following molecules and their measured Tmax readings.
endpoint label: Tmax (min)

1. Nc1cc(Nc2cc(Cl)c3n(c2=O)C2(CCCC2)NC3=O)ncn1 | 30
2. O=C1NC2(CCCC2)n2c1ccc(Nc1cc(NC(=O)C3CC3)ncn1)c2=O | 30
3. Cl.Nc1cc(Nc2cc(Cl)c3n(c2=O)C2(CCC(F)(F)CC2)NC3=O)ncn1 | 18
4. Cl.O=C1NC2(CCC(F)(F)CC2)n2c1c(Cl)cc(Nc1ccncn1)c2=O | 18

* * *

Consider the following compounds and their measured log10 of Cmax readings.
assay: in vivo; conditions: female, Balb/c, mouse, po, 10 mg/kg, Cmax
endpoint label: log10 of Cmax (log10 of the value in ng/mL)

1) Cl.Cl.Nc1cc(Nc2cc(Cl)c3n(c2=O)C2(CCNCC2)NC3=O)ncn1 [Cpd. No. 108] | 1.64
2) Cl.O=C1NC2(CCCCC2)n2c1c(Cl)cc(Nc1ccncn1)c2=O [Cpd. No. 109] | 2.80
3) Cc1cc(Nc2cc(N)ncn2)c(=O)n2c1C(=O)NC21CCCCC1 [Cpd. No. 107] | 2.98
4) Cl.O=C1NC2(CCCNC2)n2c1c(Cl)cc(Nc1ccncn1)c2=O (centres unmarked) [Cpd. No. 54] | 3.02
5) O=C1NC2(CCCCC2)n2c1c(Cl)cc(Nc1cc(NC(=O)C3CC3)ncn1)c2=O [Cpd. No. 45] | 0.96
6) CC1(c2cccc(Cl)c2)NC(=O)c2c(Cl)cc(Nc3ccncn3)c(=O)n21 (centres unmarked) [Cpd. No. 58] | 2.84
7) Nc1cc(Nc2cc(Cl)c3n(c2=O)C2(CCCCC2)NC3=O)ncn1 [Cpd. No. 70] | 2.99
8) CC1(C)NC(=O)c2c(Cl)cc(Nc3cc(N)ncn3)c(=O)n21 [Cpd. No. 88] | 2.91
9) CC1(C(F)(F)F)NC(=O)c2ccc(Nc3cc(NC(=O)C4CC4)ncn3)c(=O)n21 (centres unmarked) [Cpd. No. 24] | 2.28
10) CC1(C)NC(=O)c2c(Cl)cc(Nc3cc(NC(=O)C4CC4)ncn3)c(=O)n21 [Cpd. No. 43] | 1.34
11) Cl.O=C1NC2(CCC(F)(F)CC2)n2c1c(Cl)cc(Nc1ccncn1)c2=O [Cpd. No. 110] | 3.23
12) Cc1cc(Nc2cc(N)ncn2)c(=O)n2c1C(=O)NC21CCCC1.Cl [Cpd. No. 98] | 3.08
13) CC1(CC(F)(F)F)NC(=O)c2c(Cl)cc(Nc3ccncn3)c(=O)n21 (centres unmarked) [Cpd. No. 55] | 3.79
14) Cl.Nc1cc(Nc2cc(Cl)c3n(c2=O)C2(CCC(F)(F)CC2)NC3=O)ncn1 [Cpd. No. 99] | 2.60
15) CC1(C)NC(=O)c2ccc(Nc3cc(NC(=O)C4CC4)ncn3)c(=O)n21 [Cpd. No. 10] | 3.24
16) Cl.O=C1NC2(CCCNC2)n2c1c(Cl)cc(Nc1cc(NC(=O)C3CC3)ncn1)c2=O (centres unmarked) [Cpd. No. 60] | 1.56
17) CC1(C2CCCC2)NC(=O)c2ccc(Nc3cc(NC(=O)C4CC4)ncn3)c(=O)n21 (centres unmarked) [Cpd. No. 23] | 1.24
